tested on: MDA-MB-435
Pick one and only one: active, inactive

Example entries and their recorded answers appear below.
[
  {
    "COMPOUND": "O=C1OCC2=C1C(c1ccc(Cl)c(Cl)c1)c1cc3c(cc1N2CCO)OCCO3 (centres undefined)",
    "QUALITATIVE_LABEL": "active"
  },
  {
    "COMPOUND": "CC(C)NCCCn1c(Sc2cc3c(cc2I)OCO3)nc2c(N)ncnc21",
    "QUALITATIVE_LABEL": "active"
  },
  {
    "COMPOUND": "COc1ccc(-c2cc(-c3ccc(C)cc3)nc3nc(=S)[nH]c(N)c23)cc1",
    "QUALITATIVE_LABEL": "inactive"
  }
]

(Q) Which outcome was assigned to COc1cc2c(cc1OCCCn1c(-c3ccccn3)nc3ccccc31)N=C[C@@H]1CCCN1C2=O in this test?
(A) inactive

(Q) Tell me the assay call for O=[N+]([O-])c1ccc(C=Cc2ccccc2)cc1.[C-]#[O+].[C-]#[O+].[C-]#[O+].[Cr] please.
(A) inactive

(Q) Status in this test for O=C1c2c(c3c4ccccc4[nH]c3c3ccc4ccccc4c23)C(=O)N1CCN1CCNCC1 ?
(A) inactive
